Attribution: paper PMC6479814

reported property: melting point

Study these solved cases before continuing.
[[record]]
molecule = "O=C(CCn1c(-c2nc(C(=O)O)cs2)nc2ccccc21)Nc1cccc(C(F)(F)F)c1 [Compound 13g]"
measured = "178 to 180 °C"

[[record]]
molecule = "COc1ccc(CNC(=O)CCn2c(/C=C/C(=O)O)nc3ccccc32)cc1 [Compound 6l]"
measured = "203 to 205 °C"


Value sought for every listed molecule: melting point.
1. O=C(O)/C=C/c1nc2ccccc2n1CCC(=O)NCCc1ccc(Br)cc1 [Compound 6k]
2. COc1cccc(NC(=O)CCn2c(-c3nc(C(=O)O)cs3)nc3ccccc32)c1 [Compound 13d]
3. O=C(CCn1c(-c2nc(C(=O)O)cs2)nc2ccccc21)Nc1ccccc1 [Compound 13a]

Reply:
203 to 205 °C
223 to 225 °C
226 to 228 °C

----------
# study target: Pin1 (Homo sapiens, UniProt Q13526)
# Construct: purchased Sino Biological Inc., Beijing, China
# Sequence (Q13526 whole entry): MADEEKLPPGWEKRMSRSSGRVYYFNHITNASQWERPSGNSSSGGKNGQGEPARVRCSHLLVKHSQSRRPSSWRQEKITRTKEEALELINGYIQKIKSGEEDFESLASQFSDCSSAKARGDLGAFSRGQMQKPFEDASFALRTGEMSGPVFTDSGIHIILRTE
# experimental details: Pin1 inhibition, protease-coupled assay
# Format: biochemical
# condition summary: Pin1, compound at 10 μM, 10 °C
I would appreciate it if you labelled entries 1 when inhibition at 10 µM is 60% or higher, otherwise -1.

As a guide, the following entries are already answered.
[[record]]
compound = "O=C(CCn1c(-c2nc(C(=O)O)cs2)nc2ccccc21)Nc1ccc(C(F)(F)F)cc1 [Compound 13h]"
qualitative_label = 1

[[record]]
compound = "O=C(CCn1c(-c2nc(C(=O)O)cs2)nc2ccccc21)Nc1cccc(Br)c1 [Compound 13b]"
qualitative_label = 1

[[record]]
compound = "COc1ccc(NC(=O)CCn2c(/C=C/C(=O)O)nc3ccccc32)cc1"
qualitative_label = -1

[[record]]
compound = "COc1ccc(CCNC(=O)CCn2c(/C=C/C(=O)O)nc3ccccc32)cc1"
qualitative_label = -1

[[record]]
compound = "O=C(O)/C=C/c1nc2ccccc2n1CCC(=O)Nc1ccccc1"
qualitative_label = -1


Continue with the next compound.
Ask: Quick check: does `O=C(O)/C=C/c1nc2ccccc2n1CCC(=O)Nc1cc(Cl)cc(Cl)c1` have inhibition at 10 µM greater than or equal to 60%?
Reply: 1

----------
# study target: Pin1 (Homo sapiens, UniProt Q13526)
# Construct: purchased Sino Biological Inc., Beijing, China
# experimental details: Pin1 inhibition, protease-coupled assay
# Type: biochemical
# condition summary: Pin1, protease-coupled assay, 10 °C
So I've got a bunch of compounds here, and I need their IC50 values.
One number for each entry, in µM.

[[record]]
compound = "O=C1C=CC(=O)c2c(O)cccc21 [Juglone, reference compound]"
reported_property = "IC50"
measurement_units = "µM"
measured = 10

[[record]]
compound = "O=C(O)/C=C/c1nc2ccccc2n1CCC(=O)Nc1cccc(Br)c1 [Compound 6h]"
reported_property = "IC50"
measurement_units = "µM"
measured = 0.64

[[record]]
compound = "Cc1cc(C)c(NC(=O)CCn2c(/C=C/C(=O)O)nc3ccccc32)c(C)c1 [Compound 6o]"
reported_property = "IC50"
measurement_units = "µM"
measured = 0.97


Value sought for every listed compound: IC50.
1. O=C(CCn1c(-c2nc(C(=O)O)cs2)nc2ccccc21)Nc1cccc(C(F)(F)F)c1 [Compound 13g]
2. Cc1ccc(NC(=O)CCn2c(/C=C/C(=O)O)nc3ccccc32)cc1 [Compound 6d]
3. O=C(O)/C=C/c1nc2ccccc2n1CCC(=O)Nc1cc(Cl)cc(Cl)c1 [Compound 6n]

Reply:
[0.37, 1.65, 1.87]

----------
So I've got a bunch of compounds here, and I need their melting point values.

Study these solved cases before continuing.
[[record]]
compound = "O=C(O)/C=C/c1nc2ccccc2n1CCC(=O)Nc1ccccc1"
measured = "228 to 230 °C"

[[record]]
compound = "O=C(CCn1c(-c2nc(C(=O)O)cs2)nc2ccccc21)Nc1cccc(Br)c1 [Compound 13b]"
measured = "210 to 212 °C"

[[record]]
compound = "O=C(CCn1c(-c2nc(C(=O)O)cs2)nc2ccccc21)Nc1cccc([N+](=O)[O-])c1 [Compound 13f]"
measured = "234 to 236 °C"

[[record]]
compound = "O=C(O)CCc1nc2ccccc2n1CCC(=O)Nc1ccc(Cl)cc1"
measured = "66 to 68 °C"

[[record]]
compound = "O=C(O)/C=C/c1nc2ccccc2n1CCC(=O)Nc1cc(Cl)cc(Cl)c1"
measured = "152 to 154 °C"


Value sought for every listed compound: melting point.
1. O=C(O)/C=C/c1nc2ccccc2n1CCC(=O)N1CCCCC1
2. Cc1cc(C)c(NC(=O)CCn2c(CCC(=O)O)nc3ccccc32)c(C)c1

Reply:
["128 to 130 °C", "222 to 224 °C"]

----------
So I've got a bunch of molecules here, and I need their inhibition at 10 µM values.
# study target: Pin1 (Homo sapiens, UniProt Q13526)
# Construct: purchased Sino Biological Inc., Beijing, China
# experimental details: Pin1 inhibition, protease-coupled assay
# Assay type: biochemical
# condition summary: Pin1, compound at 10 μM, 10 °C
Answers are plain numbers, in %.

Study these solved cases before continuing.
[[record]]
molecule = "O=C(O)/C=C/c1nc2ccccc2n1CCC(=O)NCc1ccc(Br)cc1 [Compound 6j]"
reported_property = "inhibition at 10 µM"
measured = 59

[[record]]
molecule = "O=C(O)/C=C/c1nc2ccccc2n1CCC(=O)NCCc1ccc(Br)cc1 [Compound 6k]"
reported_property = "inhibition at 10 µM"
measured = 62

[[record]]
molecule = "O=C(CCn1c(-c2nc(C(=O)O)cs2)nc2ccccc21)Nc1ccccc1Br [Compound 13c]"
reported_property = "inhibition at 10 µM"
measured = 79


Value sought for every listed molecule: inhibition at 10 µM.
1. Cc1ccc(NC(=O)CCn2c(-c3nc(C(=O)O)cs3)nc3ccccc32)cc1F [Compound 13j]
2. O=C(O)/C=C/c1nc2ccccc2n1CCC(=O)Nc1cccc(Br)c1 [Compound 6h]
3. O=C(O)CCc1nc2ccccc2n1CCC(=O)Nc1ccc(Cl)cc1 [Compound 7b]
4. O=C(CCn1c(-c2nc(C(=O)O)cs2)nc2ccccc21)Nc1cccc(C(F)(F)F)c1 [Compound 13g]
5. COc1cccc(NC(=O)CCn2c(-c3nc(C(=O)O)cs3)nc3ccccc32)c1 [Compound 13d]

Reply:
1. 72
2. 90
3. 31
4. 99
5. 75

----------
# study target: Pin1 (Homo sapiens)
# Construct: purchased Sino Biological Inc., Beijing, China
# experimental details: Pin1 inhibition, protease-coupled assay
# Type: biochemical
# condition summary: Pin1, protease-coupled assay, 10 °C
So I've got a bunch of molecules here, and I need their IC50 values.
Answers are plain numbers, in nM.

Value sought for every listed molecule: IC50.
1. O=C(CCn1c(-c2nc(C(=O)O)cs2)nc2ccccc21)Nc1cc(Cl)cc(Cl)c1 [Compound 13i]
2. O=C(O)/C=C/c1nc2ccccc2n1CCC(=O)Nc1ccc(Br)cc1
3. O=C(CCn1c(-c2nc(C(=O)O)cs2)nc2ccccc21)Nc1cccc(Br)c1 [Compound 13b]
4. O=C(CCn1c(-c2nc(C(=O)O)cs2)nc2ccccc21)Nc1ccc(C(F)(F)F)cc1 [Compound 13h]

Reply:
[1350, 1730, 890, 1150]

----------
So I've got a bunch of compounds here, and I need their melting point values.

Study these solved cases before continuing.
[[record]]
compound = "O=C(CCn1c(-c2nc(C(=O)O)cs2)nc2ccccc21)Nc1ccccc1Br [Compound 13c]"
reported_property = "melting point"
measured = "186 to 188 °C"

[[record]]
compound = "COc1cc(NC(=O)CCn2c(/C=C/C(=O)O)nc3ccccc32)cc(OC)c1"
reported_property = "melting point"
measured = "203 to 204 °C"

[[record]]
compound = "Cc1cc(C)c(NC(=O)CCn2c(/C=C/C(=O)O)nc3ccccc32)c(C)c1"
reported_property = "melting point"
measured = "275 to 278 °C"

[[record]]
compound = "COc1cc(NC(=O)CCn2c(-c3nc(C(=O)O)cs3)nc3ccccc32)cc(OC)c1 [Compound 13e]"
reported_property = "melting point"
measured = "208 to 210 °C"

[[record]]
compound = "O=C(O)/C=C/c1nc2ccccc2n1CCC(=O)Nc1cccc(Br)c1"
reported_property = "melting point"
measured = "209 to 210 °C"


As a next step, examine the compound that follows.
Ask: Identify measured melting point associated with `O=C(O)/C=C/c1nc2ccccc2n1CCC(=O)Nc1ccc(Br)cc1`
Reply: 192 to 194 °C

----------
# study target: Pin1 (Homo sapiens)
# Construct: purchased Sino Biological Inc., Beijing, China
# experimental details: Pin1 inhibition, protease-coupled assay
# Type: biochemical
# condition summary: Pin1, compound at 10 μM, 10 °C
# Method: To investigate the Pin1 inhibitory potency of all synthesized compounds, the inhibition ratio at 10 μM or IC50 of all synthesized compounds was determined using protease-coupled assay. Pin1 inhibitory activities were measured at 10 °C by protease-coupled assay as reported previous. […] Additional substrate (40 μL) was added to start the assay and the reaction was monitored by absorbance at 390 nm for 90 s. […] The data was analyzed by Graphpad Prism 6.0.
reported property: inhibition at 10 µM (%)
Give bare numbers, in %.

Study these solved cases before continuing.
[[record]]
compound = "COc1cc(NC(=O)CCn2c(/C=C/C(=O)O)nc3ccccc32)cc(OC)c1"
measured = 60

[[record]]
compound = "O=C(CCn1c(-c2nc(C(=O)O)cs2)nc2ccccc21)Nc1ccccc1 [Compound 13a]"
measured = 73

[[record]]
compound = "O=C(O)/C=C/c1nc2ccccc2n1CCC(=O)Nc1ccc(Cl)cc1"
measured = 54

[[record]]
compound = "Cc1ccc(NC(=O)CCn2c(/C=C/C(=O)O)nc3ccccc32)cc1"
measured = 75


Value sought for every listed compound: inhibition at 10 µM.
1. COc1ccc(CNC(=O)CCn2c(/C=C/C(=O)O)nc3ccccc32)cc1
2. Cc1ccc(NC(=O)CCn2c(CCC(=O)O)nc3ccccc32)cc1
3. Cc1cc(C)c(NC(=O)CCn2c(CCC(=O)O)nc3ccccc32)c(C)c1
4. O=C(O)/C=C/c1nc2ccccc2n1CCC(=O)Nc1ccc(Br)cc1
5. O=C(O)/C=C/c1nc2ccccc2n1CCC(=O)N1CCCCC1
6. O=C(CCn1c(-c2nc(C(=O)O)cs2)nc2ccccc21)Nc1cc(Cl)cc(Cl)c1 [Compound 13i]
7. COc1cc(NC(=O)CCn2c(-c3nc(C(=O)O)cs3)nc3ccccc32)cc(OC)c1 [Compound 13e]
8. O=C(CCn1c(-c2nc(C(=O)O)cs2)nc2ccccc21)Nc1cccc([N+](=O)[O-])c1 [Compound 13f]

Reply:
1. 42
2. 60
3. 60
4. 66
5. 28
6. 80
7. 79
8. 40

Value sought for every listed compound: inhibition at 10 µM.
1. Cc1cc(C)c(NC(=O)CCn2c(/C=C/C(=O)O)nc3ccccc32)c(C)c1
2. O=C(O)/C=C/c1nc2ccccc2n1CCC(=O)N1CCOCC1

Reply:
1: 84; 2: 27
